Species on record: Rattus norvegicus
Protocol text: Open TG-GATES - Regimen: Single
Assay type: toxicity, organism-based, Sprague-Dawley
Design: regimen Single, gender Male, age 6 weeks
Measurement setup: in vivo, po, 1000 mg/kg, 9 h, tissue Plasma, route gavage, dose level High
I'd be grateful if you could share measured AST for these entries.
Numbers only, in IU/L.

Compound	AST [IU/L]
O=C(O)c1cc(/N=N/c2ccc(S(=O)(=O)Nc3ccccn3)cc2)ccc1O	67.4
C[C@H](CS)C(=O)N1CCC[C@H]1C(=O)O	59.4
O=C(O)c1cn(C2CC2)c2cc(N3CCNCC3)c(F)cc2c1=O	71.4

Please state, for each entry, its recorded AST.
1. CCc1cc(C(N)=S)ccn1 [ETHIONAMIDE]
2. Clc1ccccc1CN1CCc2sccc2C1

(A)
[75.2, 65.2]
